Parameter: IC50. Scope: all listed entries.
biological target: recombinant human MMP-13 (Homo sapiens); construct: made in house; host or cells: baculovirus (pBlueBac4 / Bac-N-Blue; virus made in Sf9), expressed in High-Five insect cells; culture supernatant used; experiment: Assay of MMP-13 inhibiting activity (fluorogenic peptide substrate); assay type: biochemical; conditions: Table 3; 37° C., 2 hours
Hey, just the number and the unit after it is fine.

Example cases with answers are listed next.
[Q] Could you tell me which IC50 is on file for O=C(NCS[C@@H]1CC(=O)N(Cc2ccc(Oc3ccccc3)cc2)C1)c1ccccc1 ?
[A] 100 nM

[Q] Could you tell me which IC50 is on file for O=C(O)CC(=O)S[C@@H]1CC(=O)N(Cc2ccc(Oc3ccccc3)cc2)C1 ?
[A] 11 nM

[Q] Could you tell me which IC50 is on file for CC(=O)S[C@@H]1CC(=O)N(Cc2ccc(Oc3ccccc3)cc2)C1 ?
[A] 9 nM

Next compound, IC50 to be filled in.
[Q] Could you tell me which IC50 is on file for O=C1C[C@@H](SC(=O)N2CCOCC2)CN1Cc1ccc(Oc2ccccc2)cc1 ?
[A] 2000 nM
